Target: T1, EsCas13d, nuclease-dead (Eubacterium siraeum, UniProt B0MS50, R295A;H300A;R849A;H854A)
T1 sequence: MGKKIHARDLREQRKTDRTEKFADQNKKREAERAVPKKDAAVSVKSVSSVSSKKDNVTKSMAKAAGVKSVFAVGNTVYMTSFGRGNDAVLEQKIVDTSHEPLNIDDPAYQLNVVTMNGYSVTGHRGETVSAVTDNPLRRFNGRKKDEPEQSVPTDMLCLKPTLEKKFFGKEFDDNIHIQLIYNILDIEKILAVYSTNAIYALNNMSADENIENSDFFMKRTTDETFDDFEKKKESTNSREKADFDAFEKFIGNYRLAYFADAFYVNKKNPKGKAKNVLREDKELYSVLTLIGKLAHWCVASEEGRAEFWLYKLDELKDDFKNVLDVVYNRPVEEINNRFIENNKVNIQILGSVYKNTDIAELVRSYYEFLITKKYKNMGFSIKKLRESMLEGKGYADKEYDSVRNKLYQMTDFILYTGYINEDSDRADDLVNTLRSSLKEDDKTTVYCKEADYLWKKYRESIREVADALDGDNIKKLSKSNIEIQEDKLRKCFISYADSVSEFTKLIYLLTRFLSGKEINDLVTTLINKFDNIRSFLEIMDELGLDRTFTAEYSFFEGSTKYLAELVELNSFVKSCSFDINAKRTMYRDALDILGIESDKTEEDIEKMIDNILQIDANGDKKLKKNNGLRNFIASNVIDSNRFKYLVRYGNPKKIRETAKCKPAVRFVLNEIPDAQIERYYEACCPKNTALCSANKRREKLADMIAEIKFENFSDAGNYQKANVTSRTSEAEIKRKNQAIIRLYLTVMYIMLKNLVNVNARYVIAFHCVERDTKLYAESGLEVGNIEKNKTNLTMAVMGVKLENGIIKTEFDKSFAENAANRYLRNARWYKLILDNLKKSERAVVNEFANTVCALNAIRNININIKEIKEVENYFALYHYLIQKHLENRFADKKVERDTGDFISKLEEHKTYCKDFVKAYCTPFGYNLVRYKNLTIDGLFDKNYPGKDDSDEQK
Assay: crRNA (strand 1, pre-loaded); Mg2+; 40 mM Tris-HCl pH 7.5, 150 mM NaCl, 6 mM MgCl2, 1 mM DTT, 0.1% Tween-20, 0.2 mg/ml BSA; 25 C; 10 min per concentration, then washed
Conditions: tags: His6-TwinStrep-SUMO cleaved; N-terminal SNAP kept (SNAP-Surface 488); label: 3' end held by stalled T7 RNA polymerase
ENDPOINT_NAME: Kd (nM)
One number for each entry, in nM.

Study these solved cases before continuing.
BINDER | QUANTITATIVE_RESULT
target 1 insC 3' of 10,insG 3' of 6 (mixed) RNA 1: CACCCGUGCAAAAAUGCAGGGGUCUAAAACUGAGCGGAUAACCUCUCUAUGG RNA 2: GGGAAUGGAUCCACAUCUACGAAUUCGUACCAUAGAGAGGUUCAUCCGGCUCACCGAGAUCGGAAGAGCACACGU | 18.8
target 1 MT 5'PFS UAA 3'PFS CUC (mixed) RNA 1: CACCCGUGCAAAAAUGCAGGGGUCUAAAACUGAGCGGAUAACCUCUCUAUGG RNA 2: GGGAAUGGAUCCACAUCUACGAAUUCUAACCAUAGAGAGGUUAUCCGCUCACUCAGAUCGGAAGAGCACACGU | 74
target 1 insC 3' of 8,insC 3' of 1 (mixed) RNA 1: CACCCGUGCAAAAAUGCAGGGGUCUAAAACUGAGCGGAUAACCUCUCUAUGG RNA 2: GGGAAUGGAUCCACAUCUACGAAUUCGUACCAUAGAGAGGUUAUCCCGCUCACCCGAGAUCGGAAGAGCACACGU | 13

Next binder, please.
Asked: Identify the reported Kd for the following entry. target 2 MT 5'PFS UUU 3'PFS ACA (mixed) RNA 1: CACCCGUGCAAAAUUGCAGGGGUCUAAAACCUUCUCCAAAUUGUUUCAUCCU RNA 2: GGGAAUGGAUCCACAUCUACGAAUUCUUUAGGAUGAAACAAUUUGGAGAAGACAAGAUCGGAAGAGCACACGU
Given back: 6.1

meta.source: paper PMC10786891
